- Method summary: Plasma OT pharmacokinetics after intravenous, nasal spray or nebulizer administration (radioimmunoassay after extraction)
- Assay type: in vivo, humans
- Particulars: human, in vivo, inhaled or intranasal; Nebulizer, 40 IU; post-dosing; read-out: Time of peak plasma concentration (converted)
Metric: Tmax

molecule="CC[C@H](C)[C@@H]1NC(=O)[C@H](Cc2ccc(O)cc2)NC(=O)[C@@H](N)CSSC[C@@H](C(=O)N2CCC[C@H]2C(=O)N[C@@H](CC(C)C)C(=O)NCC(N)=O)NC(=O)[C@H](CC(N)=O)NC(=O)[C@H](CCC(N)=O)NC1=O [OT, oxytocin]" metric=Tmax reported="~15 min"
